Source of measurements: the supplement of paper PMC9023506

- Test system: Danio rerio larvae (5 dpf)
- measurement_notes: activity during first hour (no stimuli), difference vs DMSO (percentage points (treated minus DMSO)); higher = more of the behaviour than the DMSO vehicle control
- condition_set: 10 µM; exposure time: 3 h pre-incubation + 3 h imaging
Counter-ions that a name gives are not always drawn.
# if value of activity during first hour reaches -2, tag YES; if it stays below, tag NO

Q) Kindly determine if activity during first hour recorded for C[C@@H](O[C@H]1OCCN(Cc2n[nH]c(=O)[nH]2)[C@H]1c1ccc(F)cc1)c1cc(C(F)(F)F)cc(C(F)(F)F)c1 [Aprepitant] is above or exactly -2.
A) NO

Q) Kindly determine if activity during first hour recorded for O=C(NCC1CCCCN1)c1cc(OCC(F)(F)F)ccc1OCC(F)(F)F (stereo not given) [Flecainide acetate] is above or exactly -2.
A) YES

Q) Kindly determine if activity during first hour recorded for O=C1CCc2cc(OCCCCc3nnnn3C3CCCCC3)ccc2N1 is above or exactly -2.
A) YES

Q) Kindly determine if activity during first hour recorded for Brc1c(NC2=NCCN2)ccc2nccnc12 is above or exactly -2.
A) NO

Q) Kindly determine if activity during first hour recorded for OC(c1cc(C(F)(F)F)nc2c(C(F)(F)F)cccc12)C1CCCCN1 (stereo not given) [Mefloquine hydrochloride] is above or exactly -2.
A) YES

Q) Kindly determine if activity during first hour recorded for COc1ccc(-c2ccc3cc(C(=O)O)ccc3c2)cc1C12CC3CC(CC(C3)C1)C2 is above or exactly -2.
A) YES

Q) Kindly determine if activity during first hour recorded for Cc1ccc(NC(=O)c2ccc(CN3CCN(C)CC3)cc2)cc1Nc1nccc(-c2cccnc2)n1 [Imatinib mesylate] is above or exactly -2.
A) NO

Q) Kindly determine if activity during first hour recorded for CC(=O)Oc1cc2c(s1)CCN(C(C(=O)C1CC1)c1ccccc1F)C2 (stereo not given) is above or exactly -2.
A) YES

Q) Kindly determine if activity during first hour recorded for CC[C@H]1OC(=O)[C@H](C)[C@@H](O[C@H]2C[C@@](C)(OC)[C@@H](O)[C@H](C)O2)[C@H](C)[C@@H](O[C@@H]2O[C@H](C)C[C@H](N(C)C)[C@H]2O)[C@](C)(O)C[C@@H](C)CN(C)[C@H](C)[C@@H](O)[C@]1(C)O is above or exactly -2.
A) NO

Q) Kindly determine if activity during first hour recorded for Nc1ncn([C@@H]2O[C@H](CO)[C@@H](O)[C@H]2O)c(=O)n1 is above or exactly -2.
A) YES

----------
- Tested on: Danio rerio larvae (5 dpf)
- measurement_notes: activity during period 15 (no stimuli), difference vs DMSO (percentage points (treated minus DMSO)); higher = more of the behaviour than the DMSO vehicle control
- condition_set: 10 µM; exposure time: 3 h pre-incubation + 3 h imaging
Structures can show the parent of a compound that is named as a salt.
endpoint: activity during period 15
No unit in the answer, only the number.

Q) Determine from records and report activity during period 15 for NC(=O)c1ncn([C@@H]2O[C@H](CO)[C@@H](O)[C@H]2O)n1 [Ribavirin]
A) -3.78

Q) Determine from records and report activity during period 15 for OCCN(CCO)c1nc(N2CCCCC2)c2nc(N(CCO)CCO)nc(N3CCCCC3)c2n1 [Dipyridamole]
A) -5.46

Q) Determine from records and report activity during period 15 for OCc1cc(C(O)CNCCCCCCOCCCCc2ccccc2)ccc1O (centres undefined) [Salmeterol xinafoate]
A) 23.9

Q) Determine from records and report activity during period 15 for CC(=O)NC[C@H]1CN(c2ccc(N3CCOCC3)c(F)c2)C(=O)O1 [Linezolid]
A) -1.07

Q) Determine from records and report activity during period 15 for CC(c1cc2ccccc2s1)N(O)C(N)=O (centres undefined) [Zileuton]
A) 3.35

Q) Determine from records and report activity during period 15 for COCCc1ccc(OCC(O)CNC(C)C)cc1 (centres undefined) [Metoprolol tartrate]
A) 3.61

Q) Determine from records and report activity during period 15 for C#C[C@]1(O)CC[C@H]2[C@@H]3CCC4=CC(=O)CC[C@@H]4[C@H]3CC[C@@]21CC [Levonorgestrel]
A) -6.07

Q) Determine from records and report activity during period 15 for C=CC(=O)N1CCC[C@@H](n2nc(-c3ccc(Oc4ccccc4)cc3)c3c(N)ncnc32)C1 [Ibrutinib]
A) -4.55

Q) Determine from records and report activity during period 15 for CO[C@H]1/C=C/O[C@@]2(C)Oc3c(C)c(O)c4c(O)c(c5c(nc6cc(C)ccn65)c4c3C2=O)NC(=O)/C(C)=C\C=C\[C@H](C)[C@H](O)[C@@H](C)[C@@H](O)[C@@H](C)[C@H](OC(C)=O)[C@@H]1C [Rifaximin]
A) -11.6

Q) Determine from records and report activity during period 15 for COCCCOc1cc(C[C@@H](C[C@H](N)[C@@H](O)C[C@H](C(=O)NCC(C)(C)C(N)=O)C(C)C)C(C)C)ccc1OC [Aliskiren hemifumarate]
A) -3.61

Q) Determine from records and report activity during period 15 for NC(=O)OCC(COC(N)=O)c1ccccc1 [Felbamate]
A) 0.376

Q) Determine from records and report activity during period 15 for COc1c(C)c2c(c(O)c1C/C=C(\C)CCC(=O)OCCN1CCOCC1)C(=O)OC2 [Mycophenolate mofetil]
A) -0.943

Q) Determine from records and report activity during period 15 for C#CCN[C@@H]1CCc2ccccc21 [Rasagiline mesylate]
A) -1.03

Q) Determine from records and report activity during period 15 for CCOC(=O)C1=C(C)NC(C)=C(C(=O)OC)C1c1cccc(Cl)c1Cl (centres undefined) [Felodipine]
A) -11.6

Q) Determine from records and report activity during period 15 for COc1cc2nccc(Oc3ccc(NC(=O)C4(C(=O)Nc5ccc(F)cc5)CC4)cc3)c2cc1OC
A) 16.2

Q) Determine from records and report activity during period 15 for Cc1nnc(C(C)C)n1C1C[C@H]2CC[C@@H](C1)N2CC[C@H](NC(=O)C1CCC(F)(F)CC1)c1ccccc1 (stereo in doubt) [Maraviroc]
A) -3.11

Q) Determine from records and report activity during period 15 for Cc1ccc(N(CC2=NCCN2)c2cccc(O)c2)cc1 [Phentolamine Mesylate]
A) 4.99

Q) Determine from records and report activity during period 15 for CS(=O)(=O)CCNCc1ccc(-c2ccc3ncnc(Nc4ccc(OCc5cccc(F)c5)c(Cl)c4)c3c2)o1 [Lapatinib]
A) -13.3

Q) Determine from records and report activity during period 15 for O=C(Nc1c(Cl)cncc1Cl)c1ccc(OC(F)F)c(OCC2CC2)c1 [Roflumilast]
A) -9.33

Q) Determine from records and report activity during period 15 for O=C(O[C@@H]1C[C@@H]2C[C@H]3C[C@H](C1)N2CC3=O)c1c[nH]c2ccccc12 [Dolasetron mesylate]
A) -1.51

Q) Determine from records and report activity during period 15 for CC(C)(C(=O)O)c1ccc(C(O)CCCN2CCC(C(O)(c3ccccc3)c3ccccc3)CC2)cc1 (centres undefined) [Fexofenadine hydrochloride]
A) 1.68

Q) Determine from records and report activity during period 15 for CCc1nc(N)nc(N)c1-c1ccc(Cl)cc1 [Pyrimethamine]
A) -4.35

Q) Determine from records and report activity during period 15 for NS(=O)(=O)c1cc2c(cc1Cl)NC(C1CC3C=CC1C3)NS2(=O)=O (centres undefined) [Cyclothiazide]
A) 3.93

Q) Determine from records and report activity during period 15 for COc1ccc([C@@H]2Sc3ccccc3N(CCN(C)C)C(=O)[C@@H]2OC(C)=O)cc1 [Diltiazem hydrochloride]
A) -3.65
